Biological target: DNA ligase 4 (Homo sapiens, UniProt P49917)
Sequence (P49917 whole entry): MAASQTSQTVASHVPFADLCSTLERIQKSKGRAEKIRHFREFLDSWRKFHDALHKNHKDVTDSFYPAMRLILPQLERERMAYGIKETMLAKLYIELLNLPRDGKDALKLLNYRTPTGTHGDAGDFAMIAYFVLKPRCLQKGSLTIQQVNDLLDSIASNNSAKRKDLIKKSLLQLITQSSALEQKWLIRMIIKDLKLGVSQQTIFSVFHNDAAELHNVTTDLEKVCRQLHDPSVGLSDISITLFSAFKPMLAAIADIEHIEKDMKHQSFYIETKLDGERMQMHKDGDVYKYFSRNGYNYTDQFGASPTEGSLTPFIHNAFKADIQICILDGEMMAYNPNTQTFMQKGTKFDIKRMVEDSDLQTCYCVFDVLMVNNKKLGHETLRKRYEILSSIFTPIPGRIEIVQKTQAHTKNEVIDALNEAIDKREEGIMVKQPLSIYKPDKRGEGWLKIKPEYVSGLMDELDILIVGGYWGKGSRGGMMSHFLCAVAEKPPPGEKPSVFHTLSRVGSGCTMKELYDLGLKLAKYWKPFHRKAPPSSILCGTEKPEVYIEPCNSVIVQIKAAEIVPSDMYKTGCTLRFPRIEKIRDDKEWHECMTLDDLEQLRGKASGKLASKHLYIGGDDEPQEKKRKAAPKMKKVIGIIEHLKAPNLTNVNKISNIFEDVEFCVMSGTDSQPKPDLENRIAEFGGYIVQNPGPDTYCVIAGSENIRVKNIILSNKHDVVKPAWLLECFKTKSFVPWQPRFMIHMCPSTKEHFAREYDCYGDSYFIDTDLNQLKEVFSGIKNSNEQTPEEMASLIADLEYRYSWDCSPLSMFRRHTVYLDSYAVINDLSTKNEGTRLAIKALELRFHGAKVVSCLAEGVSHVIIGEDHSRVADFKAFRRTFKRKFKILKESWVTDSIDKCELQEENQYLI
parameterMeasured: IC50 (µM)

INSERT INTO measurements (chemicalstructure, parametermeasured, number) VALUES
  ('Nc1nc(S)nc(O)c1/N=C/c1ccccc1', 'IC50', 5);

* * *

Catalogue of inhibition readings, one per entry.
biological target: DNA ligase 1 (Homo sapiens, UniProt P18858); assay: Inhibition of human DNA ligase 1 at 25 uM using nicked DNA as substrate after 30 mins relative to control
Sequence (P18858 whole entry): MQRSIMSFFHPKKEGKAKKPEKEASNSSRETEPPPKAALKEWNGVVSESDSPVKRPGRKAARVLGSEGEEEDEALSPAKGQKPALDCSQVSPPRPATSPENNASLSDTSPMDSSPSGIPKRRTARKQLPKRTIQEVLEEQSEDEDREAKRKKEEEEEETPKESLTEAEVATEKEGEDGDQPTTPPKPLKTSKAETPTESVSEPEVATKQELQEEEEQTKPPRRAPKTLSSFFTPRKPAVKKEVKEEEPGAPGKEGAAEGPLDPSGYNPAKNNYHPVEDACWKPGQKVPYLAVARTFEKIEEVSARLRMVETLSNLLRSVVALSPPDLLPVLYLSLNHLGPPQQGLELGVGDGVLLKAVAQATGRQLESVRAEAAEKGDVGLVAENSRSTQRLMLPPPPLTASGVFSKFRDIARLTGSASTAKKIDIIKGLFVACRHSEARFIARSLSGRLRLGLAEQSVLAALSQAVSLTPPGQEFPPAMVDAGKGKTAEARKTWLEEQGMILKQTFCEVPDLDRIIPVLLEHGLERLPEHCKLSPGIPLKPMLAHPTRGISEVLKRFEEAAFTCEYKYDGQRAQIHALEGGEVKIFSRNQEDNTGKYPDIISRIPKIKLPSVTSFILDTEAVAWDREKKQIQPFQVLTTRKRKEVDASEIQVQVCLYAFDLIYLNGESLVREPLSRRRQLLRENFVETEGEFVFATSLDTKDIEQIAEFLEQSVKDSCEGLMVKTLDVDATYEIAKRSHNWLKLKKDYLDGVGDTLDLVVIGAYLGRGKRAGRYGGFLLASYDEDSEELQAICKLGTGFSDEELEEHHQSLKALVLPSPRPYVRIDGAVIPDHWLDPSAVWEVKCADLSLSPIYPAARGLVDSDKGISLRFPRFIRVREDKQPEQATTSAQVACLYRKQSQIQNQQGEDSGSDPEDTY
parameterMeasured: inhibition

INSERT INTO results (chemicalstructure, parametermeasured, result) VALUES
  ('COc1cc(/C=C/c2cc(=O)oc3c2ccc2c(OC)cccc23)cc(OC)c1OC', 'inhibition', '< 50%'),
  ('COc1cc(/C=C/c2cc(=O)oc3c2ccc2c(C)cccc23)cc(OC)c1', 'inhibition', '> 50%'),
  ('Cc1cccc2c1ccc1c(/C=C/c3ccccc3)cc(=O)oc12', 'inhibition', '< 50%'),
  ('COc1cccc2c1ccc1c(/C=C/c3ccc(C#N)cc3)cc(=O)oc12', 'inhibition', '> 90%'),
  ('COc1ccc(/C=C/c2cc(=O)oc3c2ccc2c(OC)cccc23)cc1', 'inhibition', '< 50%'),
  ('COc1cc(/C=C/c2cc(=O)oc3c2ccc2ccccc23)cc(OC)c1OC', 'inhibition', '< 50%'),
  ('COc1ccc(OC)c(/C=C/c2cc(=O)oc3c2ccc2c(OC)cccc23)c1', 'inhibition', '< 50%'),
  ('COc1cccc2c1ccc1c(/C=C/c3ccccc3)cc(=O)oc12', 'inhibition', '> 50%'),
  ('COc1ccc(/C=C/c2cc(=O)oc3c2ccc2c(OC)cccc23)c(OC)c1', 'inhibition', '< 50%'),
  ('COc1ccc(/C=C/c2cc(=O)oc3c2ccc2c(OC)cccc23)cc1OC', 'inhibition', '> 50%'),
  ('N#Cc1ccc(/C=C/c2cc(=O)oc3c2ccc2ccccc23)cc1', 'inhibition', '< 50%'),
  ('COc1cccc(OC)c1/C=C/c1cc(=O)oc2c1ccc1c(OC)cccc12', 'inhibition', '< 50%'),
  ('COc1cccc(OC)c1/C=C/c1cc(=O)oc2c1ccc1ccccc12', 'inhibition', '< 50%'),
  ('CN(C)c1ccc(/C=C/c2cc(=O)oc3c2ccc2ccccc23)cc1', 'inhibition', '< 50%'),
  ('COc1ccc(/C=C/c2cc(=O)oc3c2ccc2ccccc23)cc1', 'inhibition', '< 50%'),
  ('COc1cccc2c1ccc1c(/C=C/c3ccc([N+](=O)[O-])cc3)cc(=O)oc12', 'inhibition', '> 90%');
